The following binders are shown together with reported MFI values.
Study Target: ESO157 A8 peptide (…)/HLA-A*02:01 complex on T2 cells (human)
Test Protocol: FACS, peptide-pulsed T2 cells

Binder	MFI
phage clone #116, anti-ESO157/HLA-A*02:01 scFv displayed on phage (scFv, V domains shown) VH: QVQLVQSGPEVKKPGASMKVSCKASGYTFTKYGISWVRQAPGQGLEWMGWISADSGKTSYAQNLQGRVSLTIDTSTATAYMELRSLRSDDTAVYYCARDDDSWGQGTLVTVSS VL: QSVLTQPPSVSAAPGQKVTISCSGSSSNIGNNYVSWYQQLPGTAPKLLIYDNNKRPSGIPDRFSGSKSGTSATLGITGLQTGDEADYYCGTWDSSLSAEVFGTGTKVTVLG	3400
phage clone #66, anti-ESO157/HLA-A*02:01 scFv displayed on phage (scFv, V domains shown) VH: EVQLVESGAEVKRPGASVKVSCKASGYTFTSYGISWVRQAPGQGLEWMGRFIPNLNKGNSAHKFEGRVSFTADKFTNTAYMELRGLKSDDTAVYYCARGDYGSDQWGQGTLVTVSS VL: QSVLTQPPSVSGAPGQRVTISCTGSSSNIGAGYDVHWYQQLPGTAPKLLIYGNSNRPSGVPDRFSGSKSGTSASLAITGLQAEDEADYYCQSYDSSLSGSWVFGGGTKLTVLG	90500
phage clone #148, anti-ESO157/HLA-A*02:01 scFv displayed on phage (scFv, V domains shown) VH: EVQLVQSGAEVKKPGASVKVSCKASGGTFSSYAISWVRQAPGQGLEWMGGIIPIFGTANYAQKFQGRVTITADKSTSTAYMELSSLRSEDTAVYYCARSYWSWTPYDPWGQGTLVTVSS VL: LPVLTQPPSVSVAPGKTARITCGGNNIGSKSVHWYQQKPGQAPVLVIYYDSDRPSGIPERFSGSNSGNTATLTISRVEAGDEADYYCQVWDSSSDHYVFGTGTKVTVLG	58300
phage clone #52, anti-ESO157/HLA-A*02:01 scFv displayed on phage (scFv, V domains shown) VH: QVQLVQSGAEVKKPGASVKVSCKASGYTFTSYGISWVRQAPGQGLEWMGWISAYNGNTNYAQKLQGRVTMTTDTSTSTAYMELRSLRSDDTAVYYCARYSGYYAGDSWGQGTLVTVSS VL: QSVLTQPPSVSGAPGQRVTISCTGSSSNIGAGYDVHWYQQLPGTAPKLLIYGDTNRPSGVPDRISGSKSGTSASLAITGLQAEDEADYYCQSYDSNLYTYVFGTGTKVTVLG	19200
phage clone #76, anti-ESO157/HLA-A*02:01 scFv displayed on phage (scFv, V domains shown) VH: EVQLVQSGAEVKKPGSSVKVSCKASGGTFSSYAISWVRQAPGQGLEWMGGIIPIFGTANYAQKFQGRVTITADESTSTAYMELSSLRSEDTAVYYCARYDSYVYDEWGQGTLVTVSS VL: QSVVTQPPSLSGAPGQRVTISCNGSGSNIGAGYDVHWYQQLPGTAPKLLIYGNSNRPSGVPDRFSGSKSGTSASLAITGLQAEDEADYYCQSYDSSLSGWGIFGGGTKLTVLG	12700

Source listed as patent US20190382504A1.
